Target Or System: CDK2 (Homo sapiens)
Construct: host or cells: HEK293-CDK2-Hibit
Protocol: HiBit Assay Protocol for CDK2 (HIBIT protein quantification, degradation)
Type: cell-based
Condition Context: HEK293-CDK2-Hibit cells, compound treatment for 6 hours, ABS DC50
Assign DC50 to each entry below.
Report only the number, with the unit nM understood.

## Task Provide one value: measured DC50 of CC(c1cc(S(=O)(=O)N2CC[C@H](Nc3ncc4c(n3)N([C@@H]3CCC[C@@H](O)C3)C(=O)C43CC3)[C@H](F)C2)ccc1F)N1CCC(c2ccc3c(N4CCC(=O)NC4=O)nn(C)c3c2)CC1 (single isomer, unassigned) [Compound 200]
## Result 3.81

## Task Look up DC50 of CC(C)[C@@H]1CN([C@@H](C)c2cccc(S(=O)(=O)N3CC[C@H](Nc4ncc5c(n4)N([C@@H]4CCC[C@@H](O)C4)C(=O)C54CC4)[C@H](F)C3)c2)CCN1c1ccc2c(N3CCC(=O)NC3=O)nn(C)c2c1 [Compound 205] and report it.
## Result 13.1

## Task Check the records and state DC50 for CC(C)C1CC(c2ccc3c(N4CCC(=O)NC4=O)nn(C)c3c2)CCN1C(C)c1cccc(S(=O)(=O)N2CC[C@H](Nc3ncc4c(n3)N([C@@H]3CCC[C@@H](O)C3)C(=O)C43CC3)[C@H](F)C2)c1 (stereo partly drawn) [Compound 190]
## Result 13.6

## Task Given CC1CCCC1N1C(=O)C2(CC2)c2cnc(NC3CCN(S(=O)(=O)N4CC5CN(C(=O)CCCc6cccc7c6n(C)c(=O)n7C6CCC(=O)NC6=O)CC5C4)CC3)nc21 (stereo not drawn) [Compound 23] , respond with its DC50.
## Result 98

## Task Write down DC50 measured for item CC1CCCC1N1C(=O)C2(CC2)c2cnc(NC3CCN(S(=O)(=O)N4CCN(CC5CCN(c6cccc7c6n(C)c(=O)n7C6CCC(=O)NC6=O)CC5)CC4)CC3)nc21 (stereo not drawn) [Compound 145]
## Result 4.08

## Task Determine its reported DC50: CC(C)[C@H]1CN([C@H](C)c2cccc(S(=O)(=O)N3CC[C@H](Nc4ncc5c(n4)N([C@@H]4CCC[C@@H](O)C4)C(=O)C54CC4)[C@H](F)C3)c2)CCN1c1ccc2c(N3CCC(=O)NC3=O)nn(C)c2c1 (stereo in doubt) [Compound 203]
## Result 10.2

## Task Return DC50 for the following molecule: Cn1nc(N2CCC(=O)NC2=O)c2ccc(C3CCN(Cc4cccc(S(=O)(=O)N5CC[C@H](Nc6ncc7c(n6)N([C@@H]6CCC[C@@H](O)C6)C(=O)C76CC6)[C@H](F)C5)c4)CC3)cc21 [Compound 156]
## Result 1.66

## Task Kindly indicate its recorded DC50. Item: C[C@H](c1cccc(S(=O)(=O)N2CC[C@H](Nc3ncc4c(n3)N([C@@H]3CCC[C@@H](O)C3)C(=O)C43CC3)[C@H](F)C2)c1)N1CCN(c2ccc3c(N4CCC(=O)NC4=O)nn(C)c3c2)[C@H](C)C1 [Compound 208]
## Result 4.62

## Task // fetch DC50 given entry C[C@H]1CCC[C@H]1N1C(=O)C2(CC2)c2cnc(NC3CCN(S(=O)(=O)N(C)CCCN4CCC(c5cccc6c5n(C)c(=O)n6C5CCC(=O)NC5=O)CC4)CC3)nc21 (stereo partly drawn) [Compound 13]
## Result 17.3
